- test: self-splicing fitness, log relative to wild type (ln ratio); higher = more splicing; Tetrahymena group I intron in knt gene, E. coli kanamycin selection, DiMSum; sequences stand for … in CUCUCU…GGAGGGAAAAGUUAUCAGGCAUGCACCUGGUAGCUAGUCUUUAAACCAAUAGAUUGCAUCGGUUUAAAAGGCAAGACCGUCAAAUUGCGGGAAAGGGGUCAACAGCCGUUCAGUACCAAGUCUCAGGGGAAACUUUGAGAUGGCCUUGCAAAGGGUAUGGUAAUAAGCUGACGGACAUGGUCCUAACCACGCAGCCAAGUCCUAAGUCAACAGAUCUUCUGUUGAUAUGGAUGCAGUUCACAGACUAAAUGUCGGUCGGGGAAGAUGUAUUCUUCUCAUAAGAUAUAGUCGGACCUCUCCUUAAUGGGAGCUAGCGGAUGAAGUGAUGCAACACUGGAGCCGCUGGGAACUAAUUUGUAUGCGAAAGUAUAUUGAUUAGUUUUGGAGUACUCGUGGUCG;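 note: selection with 25 µg/mL kanamycin versus none on LB agar overnight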
- condition info: 37 °C
Give T when the value for self-splicing fitness (ln) is at least -1. Give F when it is less.

CAAUAGCAAUAUUACGUGCU = F
AAGCAGCAAUAUUACGACAG = F
CAGAAGCAAUAUUACGACGA = T
CGAUAGCAAUAUUACGGCUG = T
ACGUAGCAAUAUUACGGCGA = T
GAAGAGCAAUAUUACGGGAG = F
GGUGAGCAAUAUUACGACAA = T
GGCCAGCAAUAUUACGCGUC = F
AGCUAGCAAUAUUACGACUA = T
UUUUAGCAAUAUUACGGCCU = F
AAGGAGCAAUAUUACGGGGG = T
GUCGAGCAAUAUUACGCGAA = T
ACAAAGCAAUAUUACGUGCC = F
UCGAAGCAAUAUUACGCGCC = F
ACCCAGCAAUAUUACGUAAG = T
CUGUAGCAAUAUUACGAUCA = F
AGCGAGCAAUAUUACGACAG = F
GCAUAGCAAUAUUACGCUGC = F
UCCAAGCAAUAUUACGGAGG = F
CCGGAGCAAUAUUACGUCGA = F
AAGGAGCAAUAUUACGUUCC = F
GAGAAGCAAUAUUACGAUAG = F
GGCGAGCAAUAUUACGACAU = T
ACACAGCAAUAUUACGGGAA = F
AGUUAGCAAUAUUACGGGCG = T
AUCGAGCAAUAUUACGUGUU = F
AUACAGCAAUAUUACGUGCA = T
UACCAGCAAUAUUACGACUU = T
GCUGAGCAAUAUUACGAACU = T
GUUCAGCAAUAUUACGACCG = F
UGGUAGCAAUAUUACGUGAC = F
UCAUAGCAAUAUUACGGUAU = F
ACUCAGCAAUAUUACGUGCA = T
UUGUAGCAAUAUUACGCAAA = F

====

- test: self-splicing fitness, log relative to wild type (ln ratio); higher = more splicing; Tetrahymena group I intron in knt gene, E. coli kanamycin selection, DiMSum; sequences stand for … in CUCUCU…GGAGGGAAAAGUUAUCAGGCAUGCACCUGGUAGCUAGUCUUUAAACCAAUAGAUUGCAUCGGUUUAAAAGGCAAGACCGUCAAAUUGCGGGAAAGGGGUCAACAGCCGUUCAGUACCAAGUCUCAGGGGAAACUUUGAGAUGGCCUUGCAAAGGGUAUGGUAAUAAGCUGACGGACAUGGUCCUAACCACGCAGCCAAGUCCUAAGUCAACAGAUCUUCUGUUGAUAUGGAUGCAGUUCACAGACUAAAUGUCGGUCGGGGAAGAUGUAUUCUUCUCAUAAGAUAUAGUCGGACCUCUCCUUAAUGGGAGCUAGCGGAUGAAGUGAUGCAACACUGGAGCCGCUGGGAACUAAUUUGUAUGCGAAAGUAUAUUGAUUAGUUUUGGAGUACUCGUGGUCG
- condition info: 37 °C
reported property: self-splicing fitness (ln)

GGCCAGCAAUAUUACGGCGA = 0.581
UCUCAGCAAUAUUACGGCUA = -2.19
GGUGAGCAAUAUUACGAGUC = -1.83
ACGUAGCAAUAUUACGUUCC = -2.04
UCCGAGCAAUAUUACGUUAG = -2.56
AUGCAGCAAUAUUACGAGAC = -2.59
UGAGAGCAAUAUUACGAUUA = -0.653
CCCCAGCAAUAUUACGCCUG = -2.97
UCACAGCAAUAUUACGAGUG = -0.607
AGACAGCAAUAUUACGAUCU = -0.863
GGUUAGCAAUAUUACGCUCG = 0.204
UCCUAGCAAUAUUACGUGUG = -2.47
AUAAAGCAAUAUUACGCUCG = 0.699
GAUUAGCAAUAUUACGUCUC = -0.965
CUUGAGCAAUAUUACGCGGA = -3.47
CAUUAGCAAUAUUACGGAGC = -2.04
AGGCAGCAAUAUUACGUAUU = -1.22
ACGUAGCAAUAUUACGACGG = -0.526
GAAUAGCAAUAUUACGGGUU = -1.86
AAGUAGCAAUAUUACGGAGA = -2.34
GUACAGCAAUAUUACGGCGA = -1.09
UUCCAGCAAUAUUACGAGAG = -0.571
AUGAAGCAAUAUUACGGUCG = 0.299
AGUCAGCAAUAUUACGGAAC = -1.89
CAACAGCAAUAUUACGUAAG = 0.376
AGCGAGCAAUAUUACGUUAU = -0.895
UUUUAGCAAUAUUACGUCAU = -1.47
GGACAGCAAUAUUACGCCCA = -0.212
ACUCAGCAAUAUUACGAACU = 0.599
AAUCAGCAAUAUUACGUCGG = -1.02
UCCGAGCAAUAUUACGUACC = -1.93
UUAAAGCAAUAUUACGGCUG = 0.525
CACCAGCAAUAUUACGGGGA = -0.764
GUCGAGCAAUAUUACGAAGA = -1.74
